Test system: hepatocytes
Assay: RNA-seq of hepatocytes treated with Phase III failure compounds
Conditions: gene C10orf11; hepatocytes
Experimental: RNA-seq was performed to determine the effects of the compounds on hepatocytes. Significance was determined by the criteria of FPKM≥0.5, a log 2(fold-change)≥1, and a […].
Structures can show the parent of a compound that is named as a salt.
Lab note - cut at -0.6 for C10orf11 expression, RNA-seq result: 1 if strictly below, 0 if not.

The following compounds have reported results that may help.
[
  {
    "COMPOUND": "CC(C)[C@H](O)C(=O)N[C@@H](C)C(=O)N[C@@H]1C(=O)N(C)CCc2ccccc21 [Semagacestat]",
    "CLASS": 0
  },
  {
    "COMPOUND": "COc1nc(C)cnc1NS(=O)(=O)c1cccnc1-c1ccc(-c2nnco2)cc1 [Zibotentan]",
    "CLASS": 1
  },
  {
    "COMPOUND": "COc1cccc2c1C(=O)c1c(O)c3c(c(O)c1C2=O)C[C@@](O)(/C(CO)=N/NC(=O)CCCCCN1C(=O)C=CC1=O)C[C@@H]3O[C@H]1C[C@H](N)[C@H](O)[C@H](C)O1 [INNO-206 (aldoxorubicin), aldoxorubicin]",
    "CLASS": 1
  },
  {
    "COMPOUND": "CN(C)[C@@H]1C(O)=C(C(N)=O)C(=O)[C@@]2(O)C(O)=C3C(=O)c4c(O)c(NC(=O)CN5CCCC5)cc(F)c4C[C@H]3C[C@@H]12 [TP-434 (Eravacycline), Eravacycline]",
    "CLASS": 0
  },
  {
    "COMPOUND": "COc1nc(N)nc2c1ncn2[C@@H]1O[C@H](COP(=O)(N[C@@H](C)C(=O)OCC(C)(C)C)Oc2cccc3ccccc23)[C@@H](O)[C@@]1(C)O (stereo partly shown) [Bms-986094 (inx-189), Bms-986094]",
    "CLASS": 1
  },
  {
    "COMPOUND": "Fc1ccc(C(OCCN2CCN(CCCc3ccccc3)CC2)c2ccc(F)cc2)cc1 [Vanoxerine (dihydrochloride), Vanoxerine]",
    "CLASS": 0
  }
]

Check if C10orf11 expression, RNA-seq result falls below -0.6 for COCCOc1ccc(N2CCN(CCn3ncc4c3nc(N)n3nc(-c5ccco5)nc43)CC2)cc1 [Preladenant] .
0

====

System: hepatocytes
Assay: RNA-seq of hepatocytes treated with Phase III failure compounds
Conditions: gene BCR; hepatocytes
VALUE_TYPE: BCR expression, RNA-seq result

[
  {
    "MOLECULE": "COCCOc1ccc(N2CCN(CCn3ncc4c3nc(N)n3nc(-c5ccco5)nc43)CC2)cc1 [Preladenant]",
    "BCR expression, RNA-seq result": "−0.62"
  },
  {
    "MOLECULE": "COc1nc(N)nc2c1ncn2[C@@H]1O[C@H](COP(=O)(N[C@@H](C)C(=O)OCC(C)(C)C)Oc2cccc3ccccc23)[C@@H](O)[C@@]1(C)O (stereo partly shown) [Bms-986094 (inx-189), Bms-986094]",
    "BCR expression, RNA-seq result": "−1.54"
  },
  {
    "MOLECULE": "C=CC(=O)Nc1cccc(Nc2nc(Nc3ccc(N4CCN(C(C)=O)CC4)cc3OC)ncc2C(F)(F)F)c1 [CO-1686 (Rociletinib), Rociletinib]",
    "BCR expression, RNA-seq result": "−0.26"
  }
]

Return reported BCR expression, RNA-seq result. Input molecule: COc1nc(C)cnc1NS(=O)(=O)c1cccnc1-c1ccc(-c2nnco2)cc1 [Zibotentan]
0.14

====

Observed Log2 fold changes in gene expression: CYP3A4 values for primary human hepatocytes are listed in what follows.
Please reply with the number alone, leaving off any unit.

[
  {
    "COMPOUND": "C[C@H](CS)C(=O)N1CCC[C@H]1C(=O)O [MT-835, Captopril]",
    "NUMERIC_RESULT": 0.02
  }
]

Enter recorded Log2 fold changes in gene expression: CYP3A4 with primary human hepatocytes for CCc1oc2ccccc2c1C(=O)c1cc(Br)c(O)c(Br)c1 [MT-220, Benzbromarone] here.
0.87

Report Log2 fold changes in gene expression: CYP3A4 on primary human hepatocytes for this entry: CC(C)(S)[C@@H](N)C(=O)O [MT-741, Penicillamine(D-)]
−0.08

Recall the reported Log2 fold changes in gene expression: CYP3A4 of CCN1CCCC1CNC(=O)c1cc(S(N)(=O)=O)ccc1OC (centres unmarked) [MT-277, Sulpiride] on primary human hepatocytes and write it down.
0

Please report the measured Log2 fold changes in gene expression: CYP3A4 for CN(C)CCC=C1c2ccccc2COc2ccccc21 [MT-723, Adapin (doxepin)] tested on primary human hepatocytes.
0.14

====

System: hepatocytes
Assay: RNA-seq of hepatocytes treated with Phase III failure compounds
Conditions: gene FADD; hepatocytes
Param threshold (-0.2) applies to RNA-seq results: FADD expression; output met when value >= threshold, not met when value < threshold.

Take a look at these entries with their results.
[
  {
    "MOLECULE": "CCN(CC)CCN(Cc1ccc(-c2ccc(C(F)(F)F)cc2)cc1)C(=O)Cn1c(SCc2ccc(F)cc2)nc(=O)c2c1CCC2 [Darapladib]",
    "TARGET": "hepatocytes",
    "CLASS": "not met"
  },
  {
    "MOLECULE": "CCC(CC)[C@H](NC(C)=O)[C@@H]1[C@H](O)[C@@H](C(=O)O)C[C@H]1NC(=N)N.O.O.O [peramivir (trihydrate), peramivir]",
    "TARGET": "hepatocytes",
    "CLASS": "met"
  }
]

Does RNA-seq results: FADD expression meet or surpass -0.2 for COc1cc(Nc2ncc(F)c(Nc3ccc4c(n3)N(COP(=O)(O)O)C(=O)C(C)(C)O4)n2)cc(OC)c1OC [fostamatinib] ?
met

Exam item: decide whether the reported RNA-seq results: FADD expression for COc1cc2c(Oc3ccc4[nH]c(C)cc4c3F)ncnc2cc1OCCCN1CCCC1 [Cediranib] is at least -0.2.
not met

Textbook exercise: given the entry Cn1cc(C2=C(c3cn(C4CCN(Cc5ccccn5)CC4)c4ccccc34)C(=O)NC2=O)c2ccccc21 [Enzastaurin] , state whether its RNA-seq results: FADD expression is greater than or equal to -0.2.
not met

Reported RNA-seq results: FADD expression at or above -0.2? CCOC(=O)N1c2ccc(C(F)(F)F)cc2[C@@H](N(Cc2cc(C(F)(F)F)cc(C(F)(F)F)c2)C(=O)OC)C[C@H]1CC [Torcetrapib]
met

Given Cn1cnc2c(F)c(Nc3ccc(Br)cc3Cl)c(C(=O)NOCCO)cc21 [Selumetinib] , state whether its RNA-seq results: FADD expression is at least -0.2.
met

Check this molecule for RNA-seq results: FADD expression at or above -0.2: O=P(O)(NCCCl)NCCCl [Palifosfamide]
not met

Textbook exercise: given the entry COc1cc2nccc(Oc3ccc(NC(=O)Nc4cc(C)on4)c(Cl)c3)c2cc1OC [Tivozanib] , state whether its RNA-seq results: FADD expression is greater than or equal to -0.2.
not met

Quick check, RNA-seq results: FADD expression >= -0.2? C=CCNC1=C2C[C@@H](C)C[C@H](OC)[C@H](O)[C@@H](C)/C=C(\C)[C@H](OC(N)=O)[C@@H](OC)/C=C\C=C(/C)C(=O)NC(=CC1=O)C2=O [17-MG (Tanespimycin), Tanespimycin]
not met

Tell me whether RNA-seq results: FADD expression is at least -0.2 here: NC(=O)c1ccc(I)c([N+](=O)[O-])c1 [BSI-201]
met

====

Test system: hepatocytes
Test: RNA-seq of hepatocytes treated with Phase III failure compounds
Conditions: gene C15orf41; hepatocytes
Method: RNA-seq was performed to determine the effects of the compounds on hepatocytes. Significance was determined by the criteria of FPKM≥0.5, a log 2(fold-change)≥1, and a […].
Structures can show the parent of a compound that is named as a salt.
VALUE_TYPE: C15orf41 expression, RNA-seq result
The answer should be written as a number, with no unit following it.

Give me measured C15orf41 expression, RNA-seq result, please, for this compound: Fc1ccc(C(OCCN2CCN(CCCc3ccccc3)CC2)c2ccc(F)cc2)cc1 [Vanoxerine (dihydrochloride), Vanoxerine]
0.13

====

Parameter RNA-seq results: GBE1 expression: see the listing below.
Test system: hepatocytes
Assay: RNA-seq of hepatocytes treated with Phase III failure compounds
Settings: gene GBE1; hepatocytes
Reply with the value as a number alone.

Some solved entries appear below for comparison.
[
  {
    "MOLECULE": "CCN(CC)CCN(Cc1ccc(-c2ccc(C(F)(F)F)cc2)cc1)C(=O)Cn1c(SCc2ccc(F)cc2)nc(=O)c2c1CCC2",
    "VALUE_TYPE": "RNA-seq results: GBE1 expression",
    "NUMERIC_RESULT": "−0.11"
  },
  {
    "MOLECULE": "Cn1cc(C2=C(c3cn(C4CCN(Cc5ccccn5)CC4)c4ccccc34)C(=O)NC2=O)c2ccccc21",
    "VALUE_TYPE": "RNA-seq results: GBE1 expression",
    "NUMERIC_RESULT": "−0.07"
  },
  {
    "MOLECULE": "O=P(O)(NCCCl)NCCCl [Palifosfamide]",
    "VALUE_TYPE": "RNA-seq results: GBE1 expression",
    "NUMERIC_RESULT": 0.2
  }
]

System hepatocytes. Read-out RNA-seq results: GBE1 expression. Item COc1cc2c(Oc3ccc4[nH]c(C)cc4c3F)ncnc2cc1OCCCN1CCCC1 . Report value.
−0.62
